Tested on: Mycobacterium tuberculosis
EXPERIMENTAL_DETAILS: Growth inhibition of Mycobacterium bovis BCG ATCC 35743 at active stage at 25 ug/ml measured after 8 days by nitrate reductase dye based two fold dilution method relative to control
Assay type: functional
MEASUREMENT_CONTEXT: BCG str. ATCC 35743, 192 h, read-out: GI
// values below are reported inhibition of growth at 25 µg/mL

[
  {
    "CHEMICAL_STRING": "COc1ccc2cc(/C=C3\\SC(=S)NC3=O)c(Cl)nc2c1",
    "inhibition of growth at 25 µg/mL [%]": 98.4
  },
  {
    "CHEMICAL_STRING": "COc1ccc2nc(Cl)c(/C=C3\\SC(=S)NC3=O)cc2c1",
    "inhibition of growth at 25 µg/mL [%]": 88.2
  },
  {
    "CHEMICAL_STRING": "O=C1NC(=S)S/C1=C\\c1cc2cc(Cl)ccc2nc1Cl",
    "inhibition of growth at 25 µg/mL [%]": 99.9
  },
  {
    "CHEMICAL_STRING": "Cc1cccc2cc(/C=C3\\SC(=S)NC3=O)c(Cl)nc12",
    "inhibition of growth at 25 µg/mL [%]": 99.3
  },
  {
    "CHEMICAL_STRING": "CCOc1ccc2nc(Cl)c(/C=C3\\SC(=S)NC3=O)cc2c1",
    "inhibition of growth at 25 µg/mL [%]": 98.6
  },
  {
    "CHEMICAL_STRING": "O=C1NC(=S)S/C1=C\\c1cc2cc(F)ccc2nc1Cl",
    "inhibition of growth at 25 µg/mL [%]": 99
  }
]

====

Tested on: Aspergillus niger
EXPERIMENTAL_DETAILS: Antifungal activity against Aspergillus niger NCIM 1196 by standard agar method
Type: functional
Response field label takes YES when MIC is strictly below 100 µg/mL and NO in all other cases.

[
  {
    "COMPOUND": "COc1ccc2cc(/C=C3\\SC(=S)N(CCC(=O)O)C3=O)c(Cl)nc2c1",
    "TARGET": "Aspergillus niger",
    "QUALITATIVE_LABEL": "NO"
  },
  {
    "COMPOUND": "O=C(O)CCN1C(=O)/C(=C/c2cc3ccccc3nc2Cl)SC1=S",
    "TARGET": "Aspergillus niger",
    "QUALITATIVE_LABEL": "YES"
  },
  {
    "COMPOUND": "Cc1ccc2nc(Cl)c(/C=C3\\SC(=S)N(CC(=O)O)C3=O)cc2c1",
    "TARGET": "Aspergillus niger",
    "QUALITATIVE_LABEL": "NO"
  },
  {
    "COMPOUND": "O=C(O)CCN1C(=O)/C(=C/c2cc3cc(F)ccc3nc2Cl)SC1=S",
    "TARGET": "Aspergillus niger",
    "QUALITATIVE_LABEL": "YES"
  },
  {
    "COMPOUND": "Cc1ccc2cc(/C=C3\\SC(=S)N(CCC(=O)O)C3=O)c(Cl)nc2c1",
    "TARGET": "Aspergillus niger",
    "QUALITATIVE_LABEL": "NO"
  },
  {
    "COMPOUND": "CCOc1ccc2nc(Cl)c(/C=C3\\SC(=S)N(CC(=O)O)C3=O)cc2c1",
    "TARGET": "Aspergillus niger",
    "QUALITATIVE_LABEL": "NO"
  },
  {
    "COMPOUND": "CCOc1ccc2nc(Cl)c(/C=C3\\SC(=S)NC3=O)cc2c1",
    "TARGET": "Aspergillus niger",
    "QUALITATIVE_LABEL": "YES"
  },
  {
    "COMPOUND": "O=C(O)CCN1C(=O)/C(=C/c2cc3cc(Cl)ccc3nc2Cl)SC1=S",
    "TARGET": "Aspergillus niger",
    "QUALITATIVE_LABEL": "NO"
  },
  {
    "COMPOUND": "O=C1NC(=S)S/C1=C\\c1cc2cc(F)ccc2nc1Cl",
    "TARGET": "Aspergillus niger",
    "QUALITATIVE_LABEL": "YES"
  },
  {
    "COMPOUND": "COc1ccc2cc(/C=C3\\SC(=S)N(CC(=O)O)C3=O)c(Cl)nc2c1",
    "TARGET": "Aspergillus niger",
    "QUALITATIVE_LABEL": "NO"
  },
  {
    "COMPOUND": "CCOc1ccc2nc(Cl)c(/C=C3\\SC(=S)N(CCC(=O)O)C3=O)cc2c1",
    "TARGET": "Aspergillus niger",
    "QUALITATIVE_LABEL": "NO"
  },
  {
    "COMPOUND": "O=C1NC(=S)S/C1=C\\c1cc2cc(Cl)ccc2nc1Cl",
    "TARGET": "Aspergillus niger",
    "QUALITATIVE_LABEL": "NO"
  },
  {
    "COMPOUND": "Cc1ccc2cc(/C=C3\\SC(=S)N(CC(=O)O)C3=O)c(Cl)nc2c1",
    "TARGET": "Aspergillus niger",
    "QUALITATIVE_LABEL": "YES"
  },
  {
    "COMPOUND": "COc1ccc2cc(/C=C3\\SC(=S)NC3=O)c(Cl)nc2c1",
    "TARGET": "Aspergillus niger",
    "QUALITATIVE_LABEL": "YES"
  },
  {
    "COMPOUND": "Clc1ccc(COC(Cn2ccnc2)c2ccc(Cl)cc2Cl)c(Cl)c1 (configuration not stated)",
    "TARGET": "Aspergillus niger",
    "QUALITATIVE_LABEL": "YES"
  },
  {
    "COMPOUND": "O=C(O)CN1C(=O)/C(=C/c2cc3cc(F)ccc3nc2Cl)SC1=S",
    "TARGET": "Aspergillus niger",
    "QUALITATIVE_LABEL": "YES"
  },
  {
    "COMPOUND": "COc1ccc2nc(Cl)c(/C=C3\\SC(=S)NC3=O)cc2c1",
    "TARGET": "Aspergillus niger",
    "QUALITATIVE_LABEL": "NO"
  },
  {
    "COMPOUND": "Cc1cccc2cc(/C=C3\\SC(=S)NC3=O)c(Cl)nc12",
    "TARGET": "Aspergillus niger",
    "QUALITATIVE_LABEL": "NO"
  },
  {
    "COMPOUND": "Cc1cccc2cc(/C=C3\\SC(=S)N(CC(=O)O)C3=O)c(Cl)nc12",
    "TARGET": "Aspergillus niger",
    "QUALITATIVE_LABEL": "NO"
  },
  {
    "COMPOUND": "Cc1ccc2nc(Cl)c(/C=C3\\SC(=S)NC3=O)cc2c1",
    "TARGET": "Aspergillus niger",
    "QUALITATIVE_LABEL": "NO"
  }
]

====

System: Staphylococcus aureus
EXPERIMENTAL_DETAILS: Antibacterial activity against of Staphylococcus aureus NCIM 2010 measured after 12 hrs
Assay type: functional
MEASUREMENT_CONTEXT: NCIM 2010, 12 h
// values below are reported MIC
OBSERVATION_TYPE: MIC

[
  {
    "COMPOUND": "COc1ccc2nc(Cl)c(/C=C3\\SC(=S)N(CC(=O)O)C3=O)cc2c1",
    "OBSERVATION_TYPE": "MIC",
    "RESULT": "> 30 µg/mL"
  },
  {
    "COMPOUND": "O=C(O)CN1C(=O)/C(=C/c2cc3cc(Cl)ccc3nc2Cl)SC1=S",
    "OBSERVATION_TYPE": "MIC",
    "RESULT": "> 30 µg/mL"
  },
  {
    "COMPOUND": "Cc1ccc2nc(Cl)c(/C=C3\\SC(=S)NC3=O)cc2c1",
    "OBSERVATION_TYPE": "MIC",
    "RESULT": "> 30 µg/mL"
  },
  {
    "COMPOUND": "Cc1ccc2cc(/C=C3\\SC(=S)N(CCC(=O)O)C3=O)c(Cl)nc2c1",
    "OBSERVATION_TYPE": "MIC",
    "RESULT": "> 30 µg/mL"
  },
  {
    "COMPOUND": "CC1(C)S[C@@H]2[C@H](NC(=O)[C@H](N)c3ccccc3)C(=O)N2[C@H]1C(=O)O [AMPICILLIN]",
    "OBSERVATION_TYPE": "MIC",
    "RESULT": "0.12 µg/mL"
  },
  {
    "COMPOUND": "COc1ccc2cc(/C=C3\\SC(=S)N(CC(=O)O)C3=O)c(Cl)nc2c1",
    "OBSERVATION_TYPE": "MIC",
    "RESULT": "> 30 µg/mL"
  },
  {
    "COMPOUND": "CCOc1ccc2nc(Cl)c(/C=C3\\SC(=S)NC3=O)cc2c1",
    "OBSERVATION_TYPE": "MIC",
    "RESULT": "> 30 µg/mL"
  },
  {
    "COMPOUND": "O=C1NC(=S)S/C1=C\\c1cc2cc(F)ccc2nc1Cl",
    "OBSERVATION_TYPE": "MIC",
    "RESULT": "22.6 µg/mL"
  },
  {
    "COMPOUND": "CCOc1ccc2nc(Cl)c(/C=C3\\SC(=S)N(CC(=O)O)C3=O)cc2c1",
    "OBSERVATION_TYPE": "MIC",
    "RESULT": "> 30 µg/mL"
  },
  {
    "COMPOUND": "O=C(O)CN1C(=O)/C(=C/c2cc3ccccc3nc2Cl)SC1=S",
    "OBSERVATION_TYPE": "MIC",
    "RESULT": "> 30 µg/mL"
  }
]
